pIC50: −log10 of the molar value. Structures can show the parent of a compound that is named as a salt.
Each entry below carries its measured pIC50, system: full-length USP7 (Homo sapiens, UniProt Q93009).
Sequence (Q93009 whole entry): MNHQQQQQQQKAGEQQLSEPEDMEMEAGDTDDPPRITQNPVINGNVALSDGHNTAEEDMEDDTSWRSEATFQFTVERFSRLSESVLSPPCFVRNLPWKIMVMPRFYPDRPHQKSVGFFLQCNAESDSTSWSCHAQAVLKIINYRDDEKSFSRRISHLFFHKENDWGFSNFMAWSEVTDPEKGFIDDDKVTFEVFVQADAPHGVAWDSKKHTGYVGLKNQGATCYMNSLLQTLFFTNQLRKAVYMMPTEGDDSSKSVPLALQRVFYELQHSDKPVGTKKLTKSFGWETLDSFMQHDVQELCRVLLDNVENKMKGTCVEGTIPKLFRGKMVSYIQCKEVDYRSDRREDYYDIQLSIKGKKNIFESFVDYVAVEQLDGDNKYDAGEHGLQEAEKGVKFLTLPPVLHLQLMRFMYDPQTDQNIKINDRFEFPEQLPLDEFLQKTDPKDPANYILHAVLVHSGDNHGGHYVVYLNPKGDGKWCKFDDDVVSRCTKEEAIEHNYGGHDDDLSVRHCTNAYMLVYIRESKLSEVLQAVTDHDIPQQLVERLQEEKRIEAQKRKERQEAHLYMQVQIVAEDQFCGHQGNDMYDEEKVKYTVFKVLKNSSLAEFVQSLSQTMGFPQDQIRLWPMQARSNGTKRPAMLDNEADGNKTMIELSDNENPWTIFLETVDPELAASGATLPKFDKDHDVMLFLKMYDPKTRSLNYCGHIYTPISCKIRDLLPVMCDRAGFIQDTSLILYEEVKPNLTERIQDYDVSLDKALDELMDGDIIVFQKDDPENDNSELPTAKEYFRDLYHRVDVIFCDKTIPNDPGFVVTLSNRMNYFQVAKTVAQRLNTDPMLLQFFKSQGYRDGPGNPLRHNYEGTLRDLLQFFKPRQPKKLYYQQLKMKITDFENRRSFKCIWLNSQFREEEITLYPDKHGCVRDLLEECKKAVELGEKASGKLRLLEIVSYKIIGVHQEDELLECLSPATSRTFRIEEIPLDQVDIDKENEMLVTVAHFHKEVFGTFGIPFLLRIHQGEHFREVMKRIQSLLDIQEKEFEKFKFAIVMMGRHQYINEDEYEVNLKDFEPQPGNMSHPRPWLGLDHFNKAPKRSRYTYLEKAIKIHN

>>> assay_value("CC1(C)C2C(=O)N(Cc3cc4c(-c5cc(Cl)cc6ccn(CC7(C#N)CCNCC7)c56)ncnn4c3)C(=O)C21 (centres unmarked) [Example 25, 2,2,2-trifluoroacetate]")
"> 6.30"
>>> assay_value("Cc1cc(Cl)cc(-c2ncnn3cc(Cn4c(=O)ccn(C5CC5)c4=O)cc23)c1C[C@@H]1CNCCO1 (single isomer, unassigned) [Example 107, hydrochloride]")
"> 6.30"
>>> assay_value("Cc1cc(Cl)cc(-c2ncnn3cc(CN4C(=O)C5C(C4=O)C5(C)C)cc23)c1CC1CNC[C@H](C)O1 (some centres unmarked) [Example 27, dihydrochloride]")
"> 6.30"
>>> assay_value("Cc1cc(Cl)cc(-c2ncnn3cc(Cn4c(=O)c(C)cn(C)c4=O)cc23)c1CC1CNC[C@H](C)O1 (single isomer, unassigned) [Example 115, hydrochloride]")
"> 6.30"
>>> assay_value("CC1(C)C2C(=O)N(Cc3cc4c(-c5cc([N+](=O)[O-])cc6ccn(C[C@@H]7CNCCO7)c56)ncnn4c3)C(=O)C21 (some centres unmarked) [Example 32, 2,2,2-trifluoroacetate]")
"> 6.30"
>>> assay_value("CCn1ccc(=O)n(Cc2cc3c(-c4cc(Cl)cc(C)c4CC4CNC[C@H](C)O4)ncnn3c2)c1=O (single isomer, unassigned) [Example 114, hydrochloride]")
"> 6.30"
>>> assay_value("Cc1cc(Cl)cc(-c2ncnn3cc(Cn4c(=O)ccn(C)c4=O)cc23)c1C[C@@H]1CNCCO1 (single isomer, unassigned) [Example 82, hydrochloride]")
"> 6.30"
>>> assay_value("Cc1cc(Cl)cc(-c2ncnn3cc(CN4C(=O)C5C(C4=O)C5(C)C)cc23)c1O[C@@H]1CNC[C@@H]1F (some centres unmarked) [Example 14, hydrochloride]")
"> 6.30"
>>> assay_value("CC1(C)C2C(=O)N(Cc3cc4c(-c5cc(Cl)cc6c5N(C5CCNC5)CCC6)ncnn4c3)C(=O)C21 (racemic) [Example 51, hydrochloride]")
"> 6.30"
>>> assay_value("CC1(C)C2C(=O)N(Cc3cc4c(-c5cc(Cl)cc6ccn(CC7(F)CCNCC7)c56)ncnn4c3)C(=O)C21 (centres unmarked) [Example 10, hydrochloride]")
"> 6.30"

Please provide the recorded pIC50 for C[C@H]1CNCC(Cc2c(Cl)cc(Cl)cc2-c2ncnn3cc(Cn4c(=O)ccn(C)c4=O)cc23)O1 (single isomer, unassigned) [Example 126, hydrochloride] , tested on full-length USP7 (Homo sapiens, UniProt Q93009).
> 6.30

---

Reported inhibition at 1 µM values are given for each entry in this list.
System name: full-length USP7 (Homo sapiens, UniProt Q93009)
Construct: A 45 μl reaction volume containing full-length USP7 (0.5-1.0 nM)
Assay info: Enzymatic assay to determine % inhibition of USP7 activity at 1 μM test compound (Ubiquitin-Rhodamine 110 cleavage)
Assay type: biochemical
Conditions used: 1 μM of the test compound; given where IC50 has not been determined yet; mean of two repetitions
Counter-ions that a name gives are not always drawn.

Example compounds with recorded inhibition at 1 µM:
>>> assay_value("Cc1cc(Cl)cc(-c2ncnn3cc(CN4C(=O)C5C(C4=O)C5(C)C)cc23)c1CC1CNC2(CC2)CO1 (stereo not drawn) [Example 71, 2,2,2-trifluoroacetate]")
"20 to 49%"
>>> assay_value("Cc1cc(Cl)cc(-c2ncnn3cc(CN4C(=O)C5C(C4=O)C5(C)C)cc23)c1OC[C@@H]1CCCNC1 (stereo partly drawn) [Example 53, hydrochloride]")
"20 to 49%"

Here's the next entry for you.
Please provide the recorded inhibition at 1 µM for Cc1cc(Cl)cc(-c2ncnn3cc(CN4C(=O)C5C(C4=O)C5(C)C)cc23)c1CN1CCC2(CC1)CNC2 (stereo not drawn) [Example 102, hydrochloride] , tested on full-length USP7 (Homo sapiens, UniProt Q93009).
20 to 49%
